Target: NS3/4A protease gt 1b (Hepatitis C virus genotype 1b)
Assay: HCV NS3 protease time-resolved fluorescence (TRF) assay, NS3/4A inhibitory activity (Ki), gt 1b
Details: genotype 1b NS3/4A; read-out: Enzyme Activity gt 1b Ki
Protocol: The HCV NS3 protease inhibitory activity of the present compounds may be tested using assays known in the art. One such assay is HCV NS3 protease time-resolved fluorescence (TRF) assay as described below and in International Patent Application Publication WO2006/102087. Other examples of such assays are described in e.g., International Patent Application Publication WO2005/046712. […] Ki is determined by an NS3 protease assay. […]
Provide the recorded pKi for the entries that follow.
Answers are plain numbers, as −log10 of the molar value.

Study these solved cases before continuing.
C=C[C@@H]1C[C@]1(NC(=O)[C@@H]1C[C@@H]2CN1C(=O)[C@H](C1CCCC1)NC(=O)O[C@]1(C)C[C@H]1CC/C=C/Cc1c(nc3ccccc3c1O)O2)C(=O)NS(=O)(=O)C1CC1: 10.40
C=C[C@@H]1C[C@]1(NC(=O)[C@@H]1C[C@@H]2CN1C(=O)[C@H](C1CCCC1)NC(=O)O[C@]1(C)C[C@H]1CCCCCc1nc3cccc(OC)c3nc1O2)C(=O)NS(=O)(=O)C1CC1: 10.70
C=C[C@@H]1C[C@]1(NC(=O)[C@@H]1C[C@@H]2CN1C(=O)[C@H](C(C)(C)C)NC(=O)O[C@]1(C)C[C@H]1CCCCCc1cccc3c1CN(C3)C(=O)O2)C(=O)NS(=O)(=O)C1CC1: 10.70

// batch mode: one pKi value per listed entry
1. C=C[C@@H]1C[C@]1(NC(=O)[C@@H]1C[C@@H]2CN1C(=O)[C@H](C(C)(C)C)NC(=O)O[C@]1(C)C[C@H]1CCC/C=C/c1cccc3c1CN(C3)C(=O)O2)C(=O)NS(=O)(=O)C1CC1
2. C=C[C@@H]1C[C@]1(NC(=O)[C@@H]1C[C@@H]2CN1C(=O)[C@H](C(C)(C)C)NC(=O)O[C@@]1(C)C[C@@H]1CC/C=C/c1cccc3c1CN(C3)C(=O)O2)C(=O)NS(=O)(=O)C1CC1

10.70
10.10

* * *

Biological target: NS3/4A protease gt 1b A156V (Hepatitis C virus genotype 1b, UniProt P26663, A1182V)
Assay: HCV NS3 protease time-resolved fluorescence (TRF) assay, NS3/4A inhibitory activity (Ki), gt 1b A156V mutant
REPORTED ENDPOINT: Ki
For clarity, give the value followed by its unit.

Study these solved cases before continuing.
C=C[C@@H]1C[C@]1(NC(=O)[C@@H]1C[C@@H]2CN1C(=O)[C@H](C1CCCC1)NC(=O)O[C@]1(C)CCC[C@H]1CC/C=C/Cc1c(nc3ccccc3c1OCc1ccccc1)O2)C(=O)NS(=O)(=O)C1CC1: 9.6 nM
C=C[C@@H]1C[C@]1(NC(=O)[C@@H]1C[C@@H]2CN1C(=O)[C@H](C(C)(C)C)NC(=O)O[C@]1(C)C[C@H]1CCCCCc1cccc3c1CN(C3)C(=O)O2)C(=O)NS(=O)(=O)C1CC1: 0.3 nM
C=C[C@@H]1C[C@]1(NC(=O)[C@@H]1C[C@@H]2CN1C(=O)[C@H](C(C)(C)C)NC(=O)O[C@]1(C)C[C@H]1CCCCc1cccc3c1CN(C3)C(=O)O2)C(=O)NS(=O)(=O)C1CC1: 27.2 nM

// batch mode: one Ki value per listed entry
1. C=C[C@@H]1C[C@]1(NC(=O)[C@@H]1C[C@@H]2CN1C(=O)[C@H](C1CCCC1)NC(=O)O[C@]1(C)C[C@H]1CCCCCn1c(nc3cc(C)ccc3c1=O)O2)C(=O)NS(=O)(=O)C1CC1
2. CC[C@@H]1C[C@]1(NC(=O)[C@@H]1C[C@@H]2CN1C(=O)[C@H](C1CCCC1)NC(=O)O[C@]1(C)CCC[C@H]1CCCCCc1c(nc3ccccc3c1O)O2)C(=O)NS(=O)(=O)C1CC1
3. C=C[C@@H]1C[C@]1(NC(=O)[C@@H]1C[C@@H]2CN1C(=O)[C@H](C1CCCC1)NC(=O)O[C@]1(C)CCC[C@H]1CCCCCc1c(nc3ccccc3c1O)O2)C(=O)NS(=O)(=O)C1CC1
4. CC[C@@H]1C[C@]1(NC(=O)[C@@H]1C[C@@H]2CN1C(=O)[C@H](C(C)(C)C)NC(=O)O[C@]1(C)C[C@H]1CCCCCc1cccc3c1CN(C3)C(=O)O2)C(=O)NS(=O)(=O)C1CC1
5. C=C[C@@H]1C[C@]1(NC(=O)[C@@H]1C[C@@H]2CN1C(=O)[C@H](C(C)(C)C)NC(=O)O[C@]1(C)C[C@H]1CCCCCc1nc3ccc(OC)cc3cc1O2)C(=O)NS(=O)(=O)C1CC1

1. 4.1 nM
2. 42.5 nM
3. 2.4 nM
4. 2.2 nM
5. 4.2 nM

Supply recorded Ki for `C=C[C@@H]1C[C@]1(NC(=O)[C@@H]1C[C@@H]2CN1C(=O)[C@H](C1CCCC1)NC(=O)O[C@]1(C)C[C@H]1CCCCCc1nc3cccc(OC)c3nc1O2)C(=O)NS(=O)(=O)C1(C)CC1` here. 1 nM

* * *

Target: NS3/4A protease gt 1b A156V (Hepatitis C virus genotype 1b, UniProt P26663, A1182V)
Experiment: HCV NS3 protease time-resolved fluorescence (TRF) assay, NS3/4A inhibitory activity (Ki), gt 1b A156V mutant
REPORTED ENDPOINT: Ki (nM)
One number for each entry, in nM.

Study these solved cases before continuing.
C=C[C@@H]1C[C@]1(NC(=O)[C@@H]1C[C@@H]2CN1C(=O)[C@H](C1CCCC1)NC(=O)O[C@]1(C)C[C@H]1CC/C=C/Cc1c(nc3ccccc3c1O)O2)C(=O)NS(=O)(=O)C1CC1: 0.9
C=C[C@@H]1C[C@]1(NC(=O)[C@@H]1C[C@@H]2CN1C(=O)[C@H](C1CCCC1)NC(=O)O[C@]1(C)C[C@H]1CC/C=C/Cn1c(nc3cc(C)ccc3c1=O)O2)C(=O)NS(=O)(=O)C1CC1: 1.2
C=C[C@@H]1C[C@]1(NC(=O)[C@@H]1C[C@@H]2CN1C(=O)[C@H](C(C)(C)C)NC(=O)O[C@@]1(C)C[C@@H]1CC/C=C/c1cccc3c1CN(C3)C(=O)O2)C(=O)NS(=O)(=O)C1CC1: 6.3
C=C[C@@H]1C[C@]1(NC(=O)[C@@H]1C[C@@H]2CN1C(=O)[C@H](C1CCCC1)NC(=O)O[C@]1(C)C[C@H]1CC/C=C/Cn1c(nc3cc(C)ccc3c1=O)O2)C(=O)NS(=O)(=O)C1(C)CC1: 0.9
C=C[C@@H]1C[C@]1(NC(=O)[C@@H]1C[C@@H]2CN1C(=O)[C@H](C1CCCC1)NC(=O)O[C@]1(C)C[C@H]1CCCCCc1nc3ccccc3nc1O2)C(=O)NS(=O)(=O)C1CC1: 2.7
C=C[C@@H]1C[C@]1(NC(=O)[C@@H]1C[C@@H]2CN1C(=O)[C@H](C1CCCC1)NC(=O)O[C@]1(C)C[C@H]1CCC/C=C/c1cccc3c1CN(C3)C(=O)O2)C(=O)NS(=O)(=O)C1CC1: 1.4
CC[C@@H]1C[C@]1(NC(=O)[C@@H]1C[C@@H]2CN1C(=O)[C@H](C1CCCC1)NC(=O)O[C@]1(C)C[C@H]1CC/C=C/Cn1c(nc3cc(C)ccc3c1=O)O2)C(=O)NS(=O)(=O)C1CC1: 13.3
C=C[C@@H]1C[C@]1(NC(=O)[C@@H]1C[C@@H]2CN1C(=O)[C@H](C1CCCC1)NC(=O)O[C@]1(C)C[C@H]1CCCCCc1nc3ccccc3nc1O2)C(=O)NS(=O)(=O)C1(C)CC1: 1.7

Turning to the following compound.
Supply recorded Ki for `C=C[C@@H]1C[C@]1(NC(=O)[C@@H]1C[C@@H]2CN1C(=O)[C@H](C(C)(C)C)NC(=O)O[C@]1(C)C[C@H]1CCC/C=C/c1cccc3c1CN(C3)C(=O)O2)C(=O)NS(=O)(=O)C1CC1` here. 1.3

* * *

Biological target: NS3/4A protease gt 3a (Hepatitis C virus genotype 3a, UniProt Q81258)
Test: HCV NS3 protease time-resolved fluorescence (TRF) assay, NS3/4A inhibitory activity (Ki), gt 3a
Details: genotype 3a NS3/4A; read-out: Enzyme Activity gt 3a Ki
Provide the recorded pKi for the entries that follow.
One number for each entry, as −log10 of the molar value.

Study these solved cases before continuing.
CC[C@@H]1C[C@]1(NC(=O)[C@@H]1C[C@@H]2CN1C(=O)[C@H](C1CCCC1)NC(=O)O[C@]1(C)CCC[C@H]1CCCCCc1c(nc3ccccc3c1O)O2)C(=O)NS(=O)(=O)C1CC1: 8.04
C=C[C@@H]1C[C@]1(NC(=O)[C@@H]1C[C@@H]2CN1C(=O)[C@H](C1CCCC1)NC(=O)O[C@]1(C)C[C@H]1CCC/C=C/c1cccc3c1CN(C3)C(=O)O2)C(=O)NS(=O)(=O)C1CC1: 7.92
C=C[C@@H]1C[C@]1(NC(=O)[C@@H]1C[C@@H]2CN1C(=O)[C@H](C(C)(C)C)NC(=O)O[C@@]1(C)C[C@@H]1CCCCc1cccc3c1CN(C3)C(=O)O2)C(=O)NS(=O)(=O)C1CC1: 6.52
C=C[C@@H]1C[C@]1(NC(=O)[C@@H]1C[C@@H]2CN1C(=O)[C@H](C(C)(C)C)NC(=O)O[C@@]1(C)C[C@@H]1CCCCCc1nc3ccccc3nc1O2)C(=O)NS(=O)(=O)C1CC1: 7.90
C=C[C@@H]1C[C@]1(NC(=O)[C@@H]1C[C@@H]2CN1C(=O)[C@H](C1CCCC1)NC(=O)O[C@]1(C)C[C@H]1CCCCCc1cccc3c1CN(C3)C(=O)O2)C(=O)NS(=O)(=O)C1CC1: 7.48
C=C[C@@H]1C[C@]1(NC(=O)[C@@H]1C[C@@H]2CN1C(=O)[C@H](C1CCCC1)NC(=O)O[C@@]1(C)C[C@@H]1CC/C=C/Cn1c(nc3cc(C)ccc3c1=O)O2)C(=O)NS(=O)(=O)C1CC1: 7.09
C=C[C@@H]1C[C@]1(NC(=O)[C@@H]1C[C@@H]2CN1C(=O)[C@H](C(C)(C)C)NC(=O)O[C@]1(C)C[C@H]1CCC/C=C/c1cccc3c1CN(C3)C(=O)O2)C(=O)NS(=O)(=O)C1CC1: 9.00
C=C[C@@H]1C[C@]1(NC(=O)[C@@H]1C[C@@H]2CN1C(=O)[C@H](C1CCCC1)NC(=O)O[C@]1(C)CCC[C@H]1CCCCCc1c(nc3ccccc3c1O)O2)C(=O)NS(=O)(=O)C1CC1: 8.85
C=C[C@@H]1C[C@]1(NC(=O)[C@@H]1C[C@@H]2CN1C(=O)[C@H](C1CCCC1)NC(=O)O[C@]1(C)C[C@H]1CCCCCc1nc3cccc(OC)c3nc1O2)C(=O)NS(=O)(=O)C1(C)CC1: 8.80
C=C[C@@H]1C[C@]1(NC(=O)[C@@H]1C[C@@H]2CN1C(=O)[C@H](C1CCCC1)NC(=O)O[C@]1(C)C[C@H]1CCCCCn1c(nc3cc(C)ccc3c1=O)O2)C(=O)NS(=O)(=O)C1CC1: 8.55

// batch mode: one pKi value per listed entry
1. C=C[C@@H]1C[C@]1(NC(=O)[C@@H]1C[C@@H]2CN1C(=O)[C@H](C1CCCC1)NC(=O)O[C@]1(C)C[C@H]1CC/C=C/Cn1c(nc3cc(C)ccc3c1=O)O2)C(=O)NS(=O)(=O)C1(C)CC1
2. C=C[C@@H]1C[C@]1(NC(=O)[C@@H]1C[C@@H]2CN1C(=O)[C@H](C1CCCC1)NC(=O)O[C@]1(C)CCC[C@H]1CCCCCc1nc3ccc(OC)cc3cc1O2)C(=O)NS(=O)(=O)C1CC1
3. CC[C@@H]1C[C@]1(NC(=O)[C@@H]1C[C@@H]2CN1C(=O)[C@H](C(C)(C)C)NC(=O)O[C@]1(C)C[C@H]1CCCCCc1nc3ccc(OC)cc3cc1O2)C(=O)NS(=O)(=O)C1CC1

1: 9.15; 2: 9.30; 3: 9.30

Source listed as patent US20130178413A1.
